Just for reference, the supplement of paper PMC10567573 is where these values come from.

B1: TCAP (parent)
chain: YQRVLPLPIFTPAKMGATKEERED

- Variants of: B1
- procedure-summary: protein stability index of a GFP-peptide fusion (GPS, HEK-293T) (PSI 1-6); higher = more stable;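 further: lentivirally expressed fusions sorted by FACS into six bins by GFP to DsRed ratio, PSI derived from sequencing read proportions per bin multiplied by bin number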
- reported-conditions: c terminus: a fixed tail appended
Note to self: values exactly at 2 are Satisfied. So protein stability index at or above 2 is Satisfied, below is Not satisfied.

• G16Y = Satisfied
• F10Y = Satisfied
• K19Q = Not satisfied
• R22P = Not satisfied
• K19E = Satisfied
• P6Q = Not satisfied
• M15Q = Satisfied
• P12M = Satisfied
• K14I = Not satisfied
• Q2L = Satisfied
• P6V = Satisfied
• P8Q = Satisfied
• T18E = Satisfied
• I9L = Satisfied
• L7F = Not satisfied
• V4Y = Satisfied
• T18Y = Not satisfied
• D24W = Satisfied
• I9Y = Satisfied
